target: human somatostatin receptor subtype SSTR2 (human) (UniProt P30874); assay: FACS, transfected HEK-293 cells; normalised to Compound 1
Sequence (P30874 whole entry): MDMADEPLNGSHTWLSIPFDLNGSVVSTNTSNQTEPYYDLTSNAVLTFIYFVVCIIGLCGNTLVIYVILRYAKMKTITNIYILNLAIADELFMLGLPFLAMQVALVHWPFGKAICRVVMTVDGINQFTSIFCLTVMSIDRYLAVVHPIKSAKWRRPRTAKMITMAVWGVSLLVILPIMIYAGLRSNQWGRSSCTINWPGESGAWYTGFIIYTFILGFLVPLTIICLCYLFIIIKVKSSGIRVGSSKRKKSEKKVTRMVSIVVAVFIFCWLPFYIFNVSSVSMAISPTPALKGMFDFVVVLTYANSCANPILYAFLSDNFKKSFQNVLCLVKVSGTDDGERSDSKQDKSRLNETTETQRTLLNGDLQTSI
*1 amine or outer side, *2 acyl side, *3 side chain or, on linkers, in order; H or OH if unused. Bridges are numbered along the chain shown (N, C = ends). Primed or numbered codes have the meaning given here. [ ]: non-standard residue; d: D form. N(2-mercaptoethyl)Gly = O=C(CN(CCS[*:3])[*:1])[*:2]; FITC′ = fluorescein isothiocyanate; Orn = NCCC[C@H](N)C(=O)O; GABA = NCCCC(=O)O
result-type: Binding affinity relative to Compound 1 (% of Compound 1)

{"columns": ["binder", "assay-value"],
 "data": [
  ["{FITC′-GABA}-[dF]CFW[dW]RTF[N(2-mercaptoethyl)Gly]-NH2 (disulfide 2-9) [Compound 15]", 77]
]}

1 = {FITC′-GABA}-[dF]RCY[dW]KTF[N(2-mercaptoethyl)Gly]-NH2 (disulfide 3-9) [Compound 6]
2 = {FITC′-GABA}-[dF]CY[dW][Orn]TF[N(2-mercaptoethyl)Gly]-NH2 (disulfide 2-8) [Compound 7]
3 = {FITC′-GABA}-[dF]CRFF[dW]KTF[N(2-mercaptoethyl)Gly]-NH2 (disulfide 2-10) [Compound 8]
4 = XCFWXKTFX (FITC-GABA-DPhe-Cys*-Phe-Trp-DTrp-Lys-Thr-Phe-GlyS2*-NH2 (* = S-S bond; GlyS2 = N-thioethyl glycine; FITC-GABA on the N-terminal amine; C-terminal amide)) [Compound 1]
Ask: Arrange by Binding affinity relative to Compound 1 (% of Compound 1), high to low. Could you list the labels in the order requested?
Result: 4, 3, 1, 2
(4: 100, 3: 69, 1: 23, 2: 15)
